system-name: E. coli DNA gyrase (Escherichia coli, UniProt P0AES4+P0AES6)
protocol-details: DNA gyrase gel shift assay
experimental-context: IC50 against E. coli DNA gyrase, WT Gyrase; Trial 1
assay-metric: pIC50
Numbers only, as −log10 of the molar value.

Query: Dear colleague, I am looking for the recorded pIC50 of the following compound: N#Cc1cccc(S(=O)(=O)N[C@@H]2CCN(Cc3ccc(-c4ccccc4)cc3)C2)c1 [Gyramide C2, gyramide C2]
Response: 7.07

* * *

Please go through the items and note down their MIC.
Tested on: Salmonella enterica subsp. enterica typhimurium
protocol-details: MIC, 20-strain panel
Assay type: cell-based
experimental-context: F: Salmonella enterica subsp. enterica Typhimurium

Here's what some known entries look like.
| line-notation | system-name | MIC |
| --- | --- | --- |
| COc1ccccc1-c1ccc(CN2CC[C@@H](NS(=O)(=O)c3cccc(C(F)(F)F)c3)C2)cc1 | Salmonella enterica subsp. enterica typhimurium | > 8 µg/mL |
| CC(C)Oc1ccc(CN2CC[C@@H](NS(=O)(=O)c3cnccc3Cl)C2)cc1 | Salmonella enterica subsp. enterica typhimurium | > 8 µg/mL |
| O=S(=O)(N[C@@H]1CCN(Cc2ccc(OC3CCOCC3)cc2)C1)c1cccc(C(F)(F)F)c1 | Salmonella enterica subsp. enterica typhimurium | > 8 µg/mL |
| Cc1c(S(=O)(=O)N[C@@H]2CCN(Cc3ccc(OC(C)C)cc3)C2)sc2ccc(Cl)cc12 | Salmonella enterica subsp. enterica typhimurium | > 8 µg/mL |

Dear colleague, could you send me MIC for each of the items below? Thanks.
1. O=S(=O)(N[C@@H]1CCN(Cc2ccc(-c3cccs3)cc2)C1)c1cccc(C(F)(F)F)c1
2. CC(C)Oc1ccc(CN2CC[C@@H](NS(=O)(=O)c3cccc(C(F)(F)F)c3)C2)cc1
3. O=S(=O)(N[C@@H]1CCN(Cc2ccc(-c3ccncc3)cc2)C1)c1cccc(C(F)(F)F)c1
4. Cc1c(CN2CC[C@@H](NS(=O)(=O)c3cccc(C(F)(F)F)c3)C2)cnn1-c1ccccc1

Response:
1: 8 µg/mL; 2: 8 µg/mL; 3: > 8 µg/mL; 4: > 8 µg/mL

# batch size: 4; output MIC per entry
1. Cc1ccc(C#N)cc1S(=O)(=O)N[C@@H]1CCN(Cc2ccc(OC(C)C)cc2)C1
2. O=S(=O)(N[C@@H]1CCN(Cc2ccc(-c3cccs3)cc2)C1)c1cccc(OC(F)(F)F)c1
3. Cc1ccncc1S(=O)(=O)N[C@@H]1CCN(Cc2ccc(OC(C)C)cc2)C1
4. COc1cc(CN2CC[C@@H](NS(=O)(=O)c3cccc(OC(F)(F)F)c3)C2)ccc1OC(C)C

Response:
["4 µg/mL", "> 8 µg/mL", "> 8 µg/mL", "> 8 µg/mL"]

Batch lookup, MIC per entry.
1. O=S(=O)(N[C@@H]1CCN(Cc2ccc(-c3ccccc3)cc2)C1)c1ncc[nH]1
2. CC(C)Oc1ccc(CN2CC[C@@H](NS(=O)(=O)c3cc(Cl)cc(C(F)(F)F)c3)C2)cc1

Response:
1: 8 µg/mL; 2: > 8 µg/mL

* * *

System: E. coli BW25113
protocol-details: MIC, microdilution in 96-well plates
Format: cell-based
experimental-context: Escherichia coli, BW25113, B: E. coli BW25113; read-out: MIC
assay-metric: MIC

Reference set, count: 5
| line-notation | MIC |
| --- | --- |
| COc1ccc(-c2ccc(CN3CC[C@@H](NS(=O)(=O)c4cccc(C#N)c4)C3)cc2)cc1 | > 8 µg/mL |
| O=S(=O)(N[C@@H]1CCN(Cc2ccc(-c3ccccc3)cc2)C1)c1cnc2ccsc2c1 | > 8 µg/mL |
| O=S(=O)(N[C@@H]1CCN(Cc2ccc(OC(F)F)cc2)C1)c1cccc(C(F)(F)F)c1 | > 8 µg/mL |
| N#Cc1cccc(S(=O)(=O)N[C@@H]2CCN(Cc3ccc(-c4ccccn4)cc3)C2)c1 | > 8 µg/mL |
| O=C1CCCN1c1ccc(CN2CC[C@@H](NS(=O)(=O)c3cccc(C(F)(F)F)c3)C2)cc1 | > 8 µg/mL |

Provide reported MIC for each item, in the same order as listed.
1. N#Cc1cccc(S(=O)(=O)N[C@@H]2CCN(Cc3ccc(-c4nccs4)cc3)C2)c1
2. Cc1c(CN2CC[C@@H](NS(=O)(=O)c3cccc(C(F)(F)F)c3)C2)cnn1-c1ccccc1
3. CC(C)Oc1c(Cl)cc(CN2CC[C@@H](NS(=O)(=O)c3cccc(OC(F)(F)F)c3)C2)cc1Cl
4. N#Cc1cccc(S(=O)(=O)N[C@@H]2CCN(Cc3ccc(-c4ccc(Cl)cc4)cc3)C2)c1
5. N#Cc1cccc(S(=O)(=O)N[C@@H]2CCN(Cc3ccc4c(c3)OCCO4)C2)c1

Response:
["> 8 µg/mL", "> 8 µg/mL", "> 8 µg/mL", "> 8 µg/mL", "> 8 µg/mL"]

Here are 5 compounds. What values of MIC were reported for them?
1. O=S(=O)(N[C@@H]1CCN(Cc2ccc(-c3ccc(Cl)cc3)cc2)C1)c1cccc(OC(F)(F)F)c1
2. O=S(=O)(N[C@@H]1CCN(Cc2ccc(OC(F)(F)F)cc2)C1)c1cccc(OC(F)(F)F)c1
3. O=S(=O)(N[C@@H]1CCN(Cc2ccc(OC3CC3)cc2)C1)c1cccc(C(F)(F)F)c1
4. O=S(=O)(N[C@@H]1CCN(Cc2ccc(OC3CCCC3)cc2)C1)c1cccc(OC(F)(F)F)c1
5. N#Cc1cccc(S(=O)(=O)N[C@@H]2CCN(Cc3ccc(N4CCCC4=O)cc3)C2)c1

Response:
> 8 µg/mL
> 8 µg/mL
~8 µg/mL
> 8 µg/mL
> 8 µg/mL

Query: Request - read-out MIC | tested on E. coli BW25113 | compound `O=S(=O)(N[C@@H]1CCN(Cc2ccc(OC3CC3)cc2)C1)c1cnc2ccccc2c1`
Response: > 8 µg/mL

Origin of values: patent US10253039B2
